Measured values drawn from patent US20220195052A1 for this set.

Some binders, each annotated with its measured pEC50.
- Tested system: T1, human αvβ1 integrin on cells (human, UniProt P06756 31-1048; P05556 21-798)
- T1 construct: also called stably transfected human αvβ1 cells; αvβ1 on MRC9 human lung fibroblasts
- T1 sequence (P06756 31-1048 limits assumed, chain 1 of 2): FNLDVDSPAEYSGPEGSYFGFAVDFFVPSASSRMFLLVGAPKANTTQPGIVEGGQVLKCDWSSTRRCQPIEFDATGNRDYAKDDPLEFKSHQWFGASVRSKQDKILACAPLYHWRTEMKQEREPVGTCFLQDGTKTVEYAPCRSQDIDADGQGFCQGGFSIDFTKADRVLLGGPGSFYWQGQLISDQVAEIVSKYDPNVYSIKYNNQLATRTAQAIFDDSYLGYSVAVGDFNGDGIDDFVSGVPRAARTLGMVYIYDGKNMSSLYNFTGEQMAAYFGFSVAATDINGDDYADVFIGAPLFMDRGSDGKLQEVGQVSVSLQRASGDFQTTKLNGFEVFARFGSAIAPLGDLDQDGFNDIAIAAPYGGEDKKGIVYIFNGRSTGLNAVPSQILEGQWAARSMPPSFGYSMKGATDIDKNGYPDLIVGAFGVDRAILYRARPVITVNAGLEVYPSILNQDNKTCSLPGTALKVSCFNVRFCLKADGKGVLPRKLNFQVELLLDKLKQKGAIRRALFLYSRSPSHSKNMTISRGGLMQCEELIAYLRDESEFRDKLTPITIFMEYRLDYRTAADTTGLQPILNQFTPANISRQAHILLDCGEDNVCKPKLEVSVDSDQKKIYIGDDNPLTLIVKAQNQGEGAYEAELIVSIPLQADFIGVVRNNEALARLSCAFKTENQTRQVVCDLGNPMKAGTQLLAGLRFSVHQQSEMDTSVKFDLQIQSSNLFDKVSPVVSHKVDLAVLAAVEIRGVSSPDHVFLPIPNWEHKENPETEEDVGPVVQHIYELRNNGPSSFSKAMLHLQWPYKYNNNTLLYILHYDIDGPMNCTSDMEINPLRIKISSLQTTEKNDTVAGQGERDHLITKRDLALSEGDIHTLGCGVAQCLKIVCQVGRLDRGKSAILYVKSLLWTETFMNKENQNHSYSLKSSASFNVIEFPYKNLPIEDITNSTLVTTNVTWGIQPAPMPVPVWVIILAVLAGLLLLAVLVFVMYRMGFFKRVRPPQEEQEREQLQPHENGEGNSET
- T1 sequence (P05556 21-798 limits assumed, chain 2 of 2): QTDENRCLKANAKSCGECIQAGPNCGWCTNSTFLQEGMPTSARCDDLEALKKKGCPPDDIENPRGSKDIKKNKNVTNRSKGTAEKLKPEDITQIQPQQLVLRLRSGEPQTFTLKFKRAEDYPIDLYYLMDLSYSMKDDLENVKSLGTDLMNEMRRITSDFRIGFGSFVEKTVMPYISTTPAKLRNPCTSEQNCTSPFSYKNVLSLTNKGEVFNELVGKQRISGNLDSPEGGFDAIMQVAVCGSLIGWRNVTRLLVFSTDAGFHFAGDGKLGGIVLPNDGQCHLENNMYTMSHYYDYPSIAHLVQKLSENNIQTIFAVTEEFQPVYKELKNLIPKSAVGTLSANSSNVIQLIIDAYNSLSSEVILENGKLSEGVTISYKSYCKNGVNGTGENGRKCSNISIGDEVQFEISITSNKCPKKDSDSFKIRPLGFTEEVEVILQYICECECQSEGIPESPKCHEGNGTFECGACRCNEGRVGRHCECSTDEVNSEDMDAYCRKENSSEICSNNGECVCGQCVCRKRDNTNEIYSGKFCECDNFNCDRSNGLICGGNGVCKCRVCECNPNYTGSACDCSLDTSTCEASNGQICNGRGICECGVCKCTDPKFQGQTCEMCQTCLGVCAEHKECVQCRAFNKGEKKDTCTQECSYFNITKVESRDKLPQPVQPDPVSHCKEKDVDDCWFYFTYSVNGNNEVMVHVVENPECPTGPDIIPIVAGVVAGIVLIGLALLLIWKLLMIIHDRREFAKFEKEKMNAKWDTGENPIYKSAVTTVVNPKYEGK
- Assay protocol: flow cytometry on stably transfected cells, antibody titration (bivalent EC50)
pEC50 (log units): -log10 of the concentration in mol/L.

Answered examples (2):
[
  {
    "Binder": "Exemplary Antibody 7 (antibody, V domains shown, expressed in yeast (Adimab platform) and purified on protein A; also called Ex. Ab 7) VH: QVQLVESGGGLVKPGGSLRLSCAASGFTFSDYYMSWIRQAPGKGLEWVSYISSSGSTIYYADSVKGRFTISRDNAKNSLYLQMNSLRAEDTAVYYCARGGPSRGDALAEYFQHWGQGTTVTVSS VL: EIVMTQSPATLSVSPGERATLSCRASQSVSSNLAWYQQKPGQAPRLLIYGASTRATGIPARFSGSGSGTEFTLTISSLQSEDFAVYYCQQLVNYPPITFGGGTKVEIK",
    "Recorded metric": "pEC50",
    "Measured number": 8.92
  },
  {
    "Binder": "Exemplary Antibody 14 (antibody, V domains shown, expressed in yeast (Adimab platform) and purified on protein A; also called Ex. Ab 14) VH: QVQLVESGGGLVKPGGSLRLSCAASGFTFSDYYMSWIRQAPGKGLEWVSYISSSGSTIYYADSVKGRFTISRDNAKNSLYLQMNSLRAEDTAVYYCARERGNRGDTPRYYYMDVWGKGTTVTVSS VL: DIQMTQSPSSLSASVGDRVTITCRASQSISRYLNWYQQKPGKAPKLLIYAASSLQSGVPSRFSGSGSGTDFTLTISSLQPEDFATYYCQQSLVTPFTFGGGTKVEIK",
    "Recorded metric": "pEC50",
    "Measured number": 9.10
  }
]

pEC50 recorded for this binder, Exemplary Antibody 17 (antibody, V domains shown, expressed in yeast (Adimab platform) and purified on protein A; also called Ex. Ab 17) VH: EVQLVQSGAEVKKPGESLKISCKGSGYSFTSYWIGWVRQMPGKGLEWMGIIYPGDSDTRYSPSFQGQVTISADKSISTAYLQWSSLKASDTAMYYCARGPRSRGDGPSNYYYMDVWGQGTLVTVSS VL: DIQMTQSPSTLSASVGDRVTITCRASQSISSWLAWYQQKPGKAPKLLIYKASSLESGVPSRFSGSGSGTEFTLTISSLQPDDFATYYCQQYRPLPPTFGGGTKVEIK , is 8.85

pEC50 recorded for this binder, Exemplary Antibody 13 (antibody, V domains shown, expressed in yeast (Adimab platform) and purified on protein A; also called Ex. Ab 13) VH: QVQLVESGGGLVKPGGSLRLSCAASGFTFSDYYMSWIRQAPGKGLEWVSYISSSGSTIYYADSVKGRFTISRDNAKNSLYLQMNSLRAEDTAVYYCARGGPSRGDALAEYFQHWGQGTTVTVSS VL: EIVMTQSPATLSVSPGERATLSCRASQSVSSNLAWYQQKPGQAPRLLIYGASTRATGIPARFSGSGSGTEFTLTISSLQSEDFAVYYCQQLTNHPPIAFGGGTKVEIK , is 9.22
